Test system: 786-0 renal
Assay: NCI tumour cell line growth inhibition, 48 h

- molecule: "Oc1ccc(Cl)cc1C(c1cc(Cl)ccc1O)C(Cl)(Cl)Cl"
  tested.system: "786-0 renal"
  unit.of.measurement: "µM"
  relation: "="
  TGI: 3.99
- molecule: "c1ccc(-c2oc(-c3ccccc3)c(CN3CCCCC3)c2CN2CCCCC2)cc1"
  tested.system: "786-0 renal"
  unit.of.measurement: "µM"
  relation: "="
  TGI: 12.7
- molecule: "O=C1CN(c2ccccc2)Cc2nc(Cl)ccc2N1"
  tested.system: "786-0 renal"
  unit.of.measurement: "µM"
  relation: ">"
  TGI: 100
- molecule: "CSc1ncnc2c1cnn2Cc1cnnn1COCC(O)CO (stereo unspecified)"
  tested.system: "786-0 renal"
  unit.of.measurement: "µM"
  relation: ">"
  TGI: 100
- molecule: "O=S1(=O)N2CN3CN(C2)CN1C3"
  tested.system: "786-0 renal"
  unit.of.measurement: "µM"
  relation: "="
  TGI: 179
- molecule: "COc1ccc(C2=Nc3c(nc(OC)[nH]c3=O)NC(c3ccccc3)C2)cc1 (stereo unspecified)"
  tested.system: "786-0 renal"
  unit.of.measurement: "µM"
  relation: "="
  TGI: 93.6
- molecule: "CN(C)c1ccc(/C=C\\c2ccnc3ccccc23)cc1"
  tested.system: "786-0 renal"
  unit.of.measurement: "µM"
  relation: ">"
  TGI: 39.2
- molecule: "CC(C)N(C(=O)C12C3C4C1C1C2C3C41C#N)C(C)C (stereo unspecified)"
  tested.system: "786-0 renal"
  unit.of.measurement: "µM"
  relation: ">"
  TGI: 100
- molecule: "CC(C)c1cccc(C(C)C)c1NC(=O)C(=O)Cc1nc2ccc([N+](=O)[O-])cc2[nH]c1=O"
  tested.system: "786-0 renal"
  unit.of.measurement: "µM"
  relation: ">"
  TGI: 100
- molecule: "CCOC(=O)c1c2ccc(/C=C/c3ccccn3)ccc-2c(C(=O)OCC)c1N"
  tested.system: "786-0 renal"
  unit.of.measurement: "µM"
  relation: ">"
  TGI: 100
- molecule: "C=C1C(=O)O[C@H]2[C@H]1CC/C(COC(=O)c1cc(OC)c(OC)c(OC)c1)=C\\CC[C@@]1(C)O[C@@H]21"
  tested.system: "786-0 renal"
  unit.of.measurement: "µM"
  relation: "="
  TGI: 2.72

* * *

Test system: HOP-62 NSCLC
Test: NCI tumour cell line growth inhibition, 48 h
Quick list: TGI per entry.

- molecule: "CSC1=NC(=Nc2c(C)cccc2C)C2(CCC(C(C)(C)C)CC2)N1c1ccc(Cl)cc1 (stereo not drawn)"
  TGI: "> 100 µM"
- molecule: "C/C(=N\\O)c1ccc2ccc3ccccc3c2c1"
  TGI: "> 100 µM"
- molecule: "COc1cc(/C=C2\\C(=O)N(Cc3ccc(Cl)cc3)c3ccccc32)cc(OC)c1OC"
  TGI: "12.5 µM"
- molecule: "[N-]=[N+]=Nc1ccccc1-c1ccccc1[N+](=O)[O-]"
  TGI: "> 100 µM"
- molecule: "Cc1ccc(C(=O)CC2(O)C(=O)Nc3c(C)cc(Cl)cc32)cc1 (stereo not drawn)"
  TGI: "> 100 µM"
- molecule: "CCNC(=O)C(C)C1CCC2(C)C=CC(=O)C(C)=C2C1O (stereo not drawn)"
  TGI: "> 100 µM"
- molecule: "CSc1ncnc2c1cnn2Cc1cn(COCCO)nn1"
  TGI: "> 100 µM"
- molecule: "CSc1ccc(C2=C(c3ccccc3)C(=O)OC2)cc1"
  TGI: "> 70 µM"
- molecule: "CCCCCCCC/C=C1\\CCC(CN(C)C)C1=O (stereo not drawn)"
  TGI: "24.7 µM"
- molecule: "CN=c1ss/c(=N\\C(=S)N(C)C)n1C"
  TGI: "> 100 µM"
- molecule: "O=C1CCN2c3ccccc3[C@H]3Cc4cccc(c4[C@@H]2C3)CCO1"
  TGI: "> 100 µM"
- molecule: "O=C(Nc1ccc(Oc2ccc3nc(NC(=O)c4ccco4)[nH]c3c2)cc1)Nc1cc(C(F)(F)F)ccc1F"
  TGI: "10.7 µM"
- molecule: "CC1(C)OC(=O)C(C)(C)C(=O)O1"
  TGI: "> 100 µM"
- molecule: "CO/C(N)=C(\\C#N)N=Cc1ccc2ccccc2c1"
  TGI: "> 100 µM"
- molecule: "CCN(CC)CCCNc1c2c(Cl)cc(Cl)cc2nc2nc(=O)[nH]c(C)c12"
  TGI: "64.7 µM"
- molecule: "CCOC(=O)C(NC(=O)OCc1ccccc1)C(=O)O (stereo not drawn)"
  TGI: "> 100 µM"
- molecule: "C#CC[C@@H]1C(=O)N(Cc2ccc(OC)cc2)[C@@H](C(C)C)C(=O)N1Cc1ccc(OC)cc1"
  TGI: "> 100 µM"
- molecule: "O=C(Nc1ccc([N+](=O)[O-])cc1)Nn1cnnc1"
  TGI: "> 100 µM"
- molecule: "COc1ccc(-n2c(CCC(=O)O)nc3c2C(=O)c2ccccc2C3=O)cc1"
  TGI: "> 100 µM"
- molecule: "COc1cccc(/C=C/C(=O)c2ccc3cc(OC)ccc3c2)c1"
  TGI: "> 50 µM"
- molecule: "CC1=NN=C(C)C1N=Nc1ccc2nc(C)[nH]c2c1"
  TGI: "> 100 µM"
- molecule: "CC(C)Oc1c(C2(c3ccccc3)SCCCS2)c(=O)c1=O"
  TGI: "> 100 µM"
- molecule: "O=C1C(Cl)N(c2c(Cl)cccc2Cl)C1c1c[nH]c2ccccc12 (stereo not drawn)"
  TGI: "> 100 µM"

The reported measurements were obtained from PubChem BioAssay (NCI).
